system: UACC-62 melanoma; test: NCI-60 one-dose screen, 48 h (100 = growth as untreated, 0 = no growth, -100 = all killed); conditions: 10 µM unless noted
This is part of a sample that, as a whole, favours compounds with a hit. Of some 83,000 tested, about 20% had one in any assay.
compounds and their reported growth
Output spec: scalar in %, unitless text.

Cc1ccc(C(=O)Nc2ccc(-n3ccnc3)c(C(F)(F)F)c2)cc1C#Cc1cnc2cccnn12 : -15.1

Tested on UACC-62 melanoma, the item N/C(=N\c1nc2ccccc2s1)NC(=O)Nc1ccccc1F showed growth equal to 25.3

Tested on UACC-62 melanoma, the item O=C(N/N=C/c1ccc(Cl)o1)c1[nH]c2ccc(Br)cc2c1-c1ccccc1 showed growth equal to 3.42

Tested on UACC-62 melanoma, the item Nc1nn2c(-c3cc4cc(Br)ccc4oc3=O)ccnc2c1N=Nc1ccc(Br)cc1 showed growth equal to 48.9

Tested on UACC-62 melanoma, the item CN(C)CCCNC(=S)Nc1ccc(/C=C/c2ccc(Cl)cc2)cc1 showed growth equal to -82.3

Reference source for all entries: PubChem BioAssay (NCI)
